Answer each item with its documented growth inhibition.
Assay: NCI Yeast Anticancer Drug Screen. Data for the mec2-1 strain (AID 157)
Settings: S. cerevisiae mec2-1 strain, at 50.0 µM, active compounds read high
Protocol: Growth inhibition of yeast strains with defined genetic alterations is measured as a screen for potential anti-cancer activity. Selected strains with alterations in DNA damage repair or cell cycle control were exposed to compounds and growth inhibition was measured relative to vehicle treated controls. The strain used in this assay is mec2-1
About 79,000 compounds went through this panel and 15% of them were active in at least one assay; those are over-represented in the sample as a whole.
Give bare numbers, in %.

{"compound": "CC(=O)Oc1cccc2c(OC(C)=O)cccc12", "unit": "%", "assayValue": 39.8}
{"compound": "O=C1C(CN2CCCC2)C(O)=C(c2ccccc2)N1c1ccccc1 (stereo not given)", "unit": "%", "assayValue": 14.8}
{"compound": "COc1cccc(=O)cc1", "unit": "%", "assayValue": 26.4}
{"compound": "COc1c2c3c(ccnc3c3ccccc13)C(=O)N2C", "unit": "%", "assayValue": 71.3}
{"compound": "COc1cccc2c1C1c3ccccc3Sc3cccc(c31)O2 (stereo not given)", "unit": "%", "assayValue": 18.3}
{"compound": "CC(=O)Nc1ccc(C(=O)NN2C(=O)C(Cl)C2c2cc(Br)cc(Br)c2O)cc1 (stereo not given)", "unit": "%", "assayValue": -25.1}

Dear colleague, could you please provide growth inhibition for the compounds listed below?
1. O=c1ccc2nc3ccccc3ccc-2c1
2. c1ccc2nc3[nH]c4ccccc4c3cc2c1
3. CSc1nc(=Nc2ccccc2)sn1-c1ccccc1
4. C#Cc1cccc(N2C(=O)CCC2=O)c1
5. C[n+]1cc2c3ccccc3ccc2c2ccccc21
6. O=S(=O)(CC(Br)CCl)c1ccccc1 (stereo not given)
7. CCCCCCCCCCCC(=O)C(=O)c1ccc(O)cc1O

A)
1. 15.2
2. 53.6
3. 99.5
4. 93.6
5. 53.2
6. 31.3
7. 97.3

###

Record form. Attribute: growth inhibition. Fill in for each entry.
assay: NCI Yeast Anticancer Drug Screen. Data for the mlh1 rad18 strain (AID 175); conditions: S. cerevisiae mlh1 rad18 strain growth inhibition; at 50.0 µM (retest, dose inferred, filed as 5.0); active compounds read high
The panel holds about 79,000 compounds, 15% with a hit somewhere; the sample as a whole holds those more often.
One number for each entry, in %.

Some solved cases for reference:
{"compound": "OC(Cc1cccnc1)(c1ccccc1)c1ccc(Cl)cc1 (centres undefined)", "measurementType": "growth inhibition", "assayValue": 71}
{"compound": "CNC1=C2NC(=O)/C(C)=C\\C=C\\C(C)C(O)C(C)C(O)C(C)C(OC(C)=O)C(C)C(OC)/C=C/OC3(C)Oc4c(C)c(O)c(c(c4C3=O)C1=O)C2=O (centres undefined)", "measurementType": "growth inhibition", "assayValue": 64}
{"compound": "CC(=O)Nc1nc(Cl)c2ncn(C3CC(OC(=O)c4ccc(C)cc4)C(COC(=O)c4ccc(C)cc4)O3)c2n1 (centres undefined)", "measurementType": "growth inhibition", "assayValue": 0}
{"compound": "OCC(O)C(O)C(O)/C=N\\Nc1ccccc1 (centres undefined)", "measurementType": "growth inhibition", "assayValue": 42}
{"compound": "CCCCCCCC/C=C\\CCCCCCCC(=O)O (tested in a mixture with another compound)", "measurementType": "growth inhibition", "assayValue": 96}
{"compound": "CC(C(O)Cc1ccccc1)N(C)N=Nc1ccc([N+](=O)[O-])cc1 (centres undefined)", "measurementType": "growth inhibition", "assayValue": 89}
{"compound": "COC12C=CC(CC1)c1c2c(O)c2ncccc2c1O (centres undefined)", "measurementType": "growth inhibition", "assayValue": 52}
{"compound": "O=C(NC1=C(Cl)C(=O)c2ccccc2C1=O)C(=O)C(C(=O)c1ccc2ccccc2c1)C1OC(=O)c2ccccc21 (centres undefined)", "measurementType": "growth inhibition", "assayValue": 83}

Now for another entry.
Q) Dear colleague, I am looking for the recorded growth inhibition of the following compound: `O=C1CSC(=S)N1c1ccc(F)cc1F`
A) 89

###

assay: NCI Yeast Anticancer Drug Screen. Data for the mlh1 rad18 strain (AID 175); conditions: S. cerevisiae mlh1 rad18 strain growth inhibition; at 5.0 µM (retest, dose inferred, filed as 0.5); active compounds read high
About 79,000 compounds went through this panel and 15% of them were active in at least one assay; those are over-represented in the sample as a whole.
measurementType: growth inhibition (%)
One number for each entry, in %.

Your task in this section: give growth inhibition for each listed record.
1. Cc1cccc2c1Oc1ccccc1C2N1C(=O)/C(=C/c2ccccc2Cl)SC1=S (configuration not stated)
2. O=C1/C(=C/c2ccc(Cl)cc2)CSC/C1=C\c1ccc(Cl)cc1
3. O=C(Nc1cccc(Cl)c1)OCCN(CCOC(=O)Nc1cccc(Cl)c1)C(=O)Nc1cccc(Cl)c1
4. C/C(=N\NC(=S)N1CCCCCC1)c1cccc2cccnc12

A)
[99, 16, 62, -9]

Please report growth inhibition for every entry that follows.
1. CC(=O)c1ccc2sc3ccccc3c2c1
2. Cn1c2c(c3ccccc31)CCN(CCCN1CCN(c3cccc(Cl)c3)CC1)C2=O

A)
-120
25

###

Could you please report measured growth inhibition for the items listed next?
assay: NCI Yeast Anticancer Drug Screen. Data for the mec2-1 strain (AID 157); conditions: S. cerevisiae mec2-1 strain, at 5.0 µM (retest, dose inferred, filed as 0.5), active compounds read high
The panel holds about 79,000 compounds, 15% with a hit somewhere; the sample as a whole holds those more often.
Give bare numbers, in %.

Solved entries:
{"molecule": "CCN(CC)CCNc1c(OC)cc(C)c2sc3ccccc3c(=O)c12", "measurementType": "growth inhibition", "assayValue": 6}
{"molecule": "CCCCCCCCNc1ccc(Cl)cc1", "measurementType": "growth inhibition", "assayValue": 26}
{"molecule": "C[C@]12CC[C@H](O)CC1=CC[C@@H]1C2CC[C@]2(C)NC(=O)CCC12 (some centres not stated)", "measurementType": "growth inhibition", "assayValue": 1}

Batch request: growth inhibition for each of the following molecules.
1. O=C1C=CC(=Nc2cccc3c2-c2ccccc2C3)O1
2. Nc1ccc(CCCCCc2ccc(N)cc2)cc1
3. O=c1c(Cl)c(Cl)c(=O)c2sc3cc(Cl)ccc3[nH]c1=2
4. CN(O)C(=S)c1ccccc1
5. Clc1cccc(Cl)c1C(Nc1nncs1)Nc1nncs1
6. CC(C)(C)OC(=O)c1ccc(NCC2=C(Br)C(=O)C=CC2=O)cc1
7. CCCCCCCCCCCCCCCCCCOC(=O)Nc1ccc(C)c(NC(=O)OCCCCCCCCCCCCCCCCCC)c1
8. CS(=O)(=O)N1C(=O)C2C3CCC(O3)C2C1=O (configuration not stated)

A)
1. 99
2. -9
3. 3
4. 43
5. -9
6. 12
7. 6
8. -46

Q) Quick one: growth inhibition of `CCOC(=O)Cc1csc(/N=C\c2c(O)c3ccccc3oc2=O)n1` ?
A) 16

###

assay: NCI Yeast Anticancer Drug Screen. Data for the sgs1 mgt1 strain (AID 161);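 further: 0% = growth of cultures given vehicle only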; conditions: S. cerevisiae sgs1 mgt1 strain, at 50.0 µM (retest, dose inferred, filed as 5.0), active compounds read high
This is part of a sample that, as a whole, favours compounds with a hit. Of some 79,000 tested, about 15% had one in any assay.
Hi there, I'd appreciate the recorded growth inhibition for every entry that follows.
One number for each entry, in %.

Worked cases, growth inhibition given:
{"compound": "Cc1cc(O)ccc1SC#N", "unit": "%", "growth inhibition": 28}
{"compound": "CN(C)CCN(C)N=Nc1c(-c2ccc(Cl)cc2)n[nH]c1C(F)(F)F", "unit": "%", "growth inhibition": 99}
{"compound": "O=Cc1c(Cn2ccnc2)c2cc([N+](=O)[O-])ccc2n1Cc1ccccc1", "unit": "%", "growth inhibition": 48}
{"compound": "C=C1CC(C)(COc2ccc3c(C)c(Cl)c(=O)oc3c2)OC1=O (stereo not drawn)", "unit": "%", "growth inhibition": 95}
{"compound": "O=C(c1ccccc1)C1C(c2ccccc2)OP(c2ccccc2)(c2ccccc2)(c2ccccc2)C1c1ccccc1 (stereo not drawn)", "unit": "%", "growth inhibition": 100}

Quick batch: growth inhibition for everything below.
1. [Fe+2].c1cc[cH-]c1.c1ccc(-c2ccc[cH-]2)cc1
2. CCOc1ccccc1C(=O)Nc1cc(C)nn1-c1ccccc1
3. O=C1OCCCN1/N=C/c1ccc([N+](=O)[O-])o1
4. CC1C[C@]2(C)C(=S)Nc3ccccc3[C@@H]2Nc2ccccc21 (stereo partly drawn)
5. O=C(/C=C/c1ccc(Cl)c(Cl)c1)CCN1CCN(CCC(=O)/C=C/c2ccc(Cl)c(Cl)c2)CC1

A)
1: 47; 2: 6; 3: 65; 4: 74; 5: 99

Quick batch: growth inhibition for everything below.
1. CCC/C(=N\O)S(=O)(=O)c1ccc(NN=O)nc1
2. NC1=NC(c2ccccc2)CC(c2cc(Cl)cc(Br)c2O)=N1 (stereo not drawn)
3. C/C(=N/NC(N)=S)C(CN1CCOCC1)C(C1=C(O)c2ccccc2OC1)c1ccccc1 (stereo not drawn)
4. CN(Cc1ccccc1)CC(O)c1cc(-c2ccc(Cl)cc2)nc2ccccc12 (stereo not drawn)
5. N#CSc1ccc2nc(NCO)sc2c1
6. CC(=O)Nc1c(Cl)ccc2c1Cc1cc([N+](=O)[O-])ccc1-2

A)
-11
42
24
100
98
-39

Your task in this section: give growth inhibition for each listed record.
1. CC[Si](CC)(CC)c1ccc(CCNCCS)s1
2. Cc1c2ccnc(-c3ccc(F)cc3)c2cc2c1[nH]c1ccccc12
3. CC(O)CCCOC(c1ccccc1)(c1ccccc1)c1ccccc1 (stereo not drawn)
4. CN1CCCCC1c1cc2c3ccccc3ccn2c1-c1ccccc1 (stereo not drawn)
5. Cc1n(CC(C)C)c2c([n+]1CC(=O)c1ccc([N+](=O)[O-])cc1)C(=O)c1ccccc1C2=O
6. CCc1cccc(CC)c1NC(=S)N/C=C(\C#N)C(=O)c1ccc2ccccc2c1
7. Cc1ccc(/C=N/NS(=O)(=O)c2ccccc2)c(C)c1

A)
1: 98; 2: 48; 3: 95; 4: 94; 5: 98; 6: 13; 7: 15
